The measured values listed here are drawn from patent US8546381B2.

TESTED SYSTEM: human recombinant adrenergic α2B receptor (Homo sapiens)
Construct: expressed in transfected cells; host or cells: CHO-K1 cells
Sequence (P18089 1-450): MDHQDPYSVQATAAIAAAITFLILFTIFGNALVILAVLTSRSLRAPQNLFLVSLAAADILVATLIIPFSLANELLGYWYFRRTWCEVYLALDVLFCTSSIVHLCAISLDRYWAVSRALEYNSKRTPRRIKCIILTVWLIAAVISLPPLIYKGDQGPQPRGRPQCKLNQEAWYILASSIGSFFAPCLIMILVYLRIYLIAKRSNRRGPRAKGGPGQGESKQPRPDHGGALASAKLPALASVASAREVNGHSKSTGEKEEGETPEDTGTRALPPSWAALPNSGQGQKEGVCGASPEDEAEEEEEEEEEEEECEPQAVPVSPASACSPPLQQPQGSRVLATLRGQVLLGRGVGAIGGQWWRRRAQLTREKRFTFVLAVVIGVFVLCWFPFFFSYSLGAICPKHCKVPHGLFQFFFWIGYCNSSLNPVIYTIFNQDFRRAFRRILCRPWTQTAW
PROTOCOL: Adrenergic α2B radioligand binding ([3H]Rauwolscine)
DETAILS: 1 μM; read-out: Adrenergic α2B, inhibition of ligand binding (1 μM)
Method: To evaluate in radioligand binding assays the activity of compounds of the invention, human recombinant adrenergic α2B receptor expressed in Chinese hamster ovary (CHO-K1) cells (Uhlen S et al. Eur J. Pharmacol. 343(1):93, 1998) in a modified Tris-HCl buffer (50 mM Tris-HCl, pH 7.4, 12.5 mM MgCl2, 1 mM EDTA, 0.2% BSA) was used. […] Receptor proteins were filtered and washed, the filters were then counted to determine [^3H]Rauwolscine specifically bound. […]
List of inhibition at 1 µM values.
Entry rule: numbers only, all in %.

The following compounds have reported results that may help.
Cc1ccc(C(O)Cn2c3c(c4cc(Cl)ccc42)C2CCC(C3)N2C)cn1 (stereo not drawn) [Compound 52] : 85
C/C(=C\n1c2c(c3cc(C)ccc31)C1CCC(C2)N1C)c1ccc(Cl)cc1 (stereo not drawn) [Compound 116] : 95
Cc1ccc2c(c1)c1c(n2CCc2ccc(C(F)(F)F)nc2)CC2CCC1N2C (stereo not drawn) [Compound 71] : 99
Cc1ccc(CCCn2c3c(c4cc(Cl)ccc42)C2CCC(C3)N2C)cn1 (stereo not drawn) [Compound 38] : 76
C/C(=C\n1c2c(c3cc(Cl)ccc31)C1CCC(C2)N1C)c1ccc(F)cc1 (stereo not drawn) [Compound 123] : 103

**Q:** Endpoint output: inhibition at 1 µM of CN1C2CCC1c1c(n(C#Cc3ccc(Cl)cc3)c3ccc(Cl)cc13)C2 (stereo not drawn) [Compound 142] . Value?
**A:** 95

###

TESTED SYSTEM: human recombinant serotonin (5-Hydroxytryptamine) 5-HT6 receptor (Homo sapiens)
Construct: expressed in transfected cells; host or cells: human HeLa cells
Sequence (P50406 whole entry): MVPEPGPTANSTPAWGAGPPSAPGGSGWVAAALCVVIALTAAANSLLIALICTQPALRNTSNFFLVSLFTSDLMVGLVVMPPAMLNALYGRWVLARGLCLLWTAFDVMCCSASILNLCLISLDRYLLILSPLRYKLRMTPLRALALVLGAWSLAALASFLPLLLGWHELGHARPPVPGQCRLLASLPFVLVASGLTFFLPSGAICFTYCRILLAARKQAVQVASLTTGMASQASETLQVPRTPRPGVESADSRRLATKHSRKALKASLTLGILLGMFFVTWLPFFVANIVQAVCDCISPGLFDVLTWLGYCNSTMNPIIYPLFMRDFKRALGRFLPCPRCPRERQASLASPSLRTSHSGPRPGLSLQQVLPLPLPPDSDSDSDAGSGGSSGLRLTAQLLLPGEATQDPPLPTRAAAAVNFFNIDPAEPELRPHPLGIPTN
PROTOCOL: Serotonin 5-HT6 radioligand binding ([3H]LSD)
DETAILS: read-out: Serotonin 5-HT6, inhibition of ligand binding (1 μM)
PROPERTY NAME: inhibition at 1 µM (%)
Entry rule: numbers only, all in %.

CN1C2CCC1c1c(n(C#Cc3ccc(F)cc3)c3ccc(Cl)cc13)C2 (stereo not drawn) [Compound 138] : 45

**Q:** Endpoint output: inhibition at 1 µM of C/C(=C\n1c2c(c3cc(C)ccc31)C1CCC(C2)N1C)c1ccc(Cl)cc1 (stereo not drawn) [Compound 116] . Value?
**A:** 10

**Q:** Endpoint output: inhibition at 1 µM of C/C(=C\n1c2c(c3cc(Cl)ccc31)C1CCC(C2)N1C)c1ccc(F)cc1 (stereo not drawn) [Compound 123] . Value?
**A:** 98

**Q:** Endpoint output: inhibition at 1 µM of Cc1ccc2c(c1)c1c(n2CCc2cccnc2)CC2CCC1N2C (stereo not drawn) [Compound 86] . Value?
**A:** 60

**Q:** Endpoint output: inhibition at 1 µM of Cc1ncc(CCn2c3c(c4cc(Cl)ccc42)C2CCC(C3)N2C)cn1 (stereo not drawn) [Compound 82] . Value?
**A:** 13

###

List of inhibition at 1 µM values.
TESTED SYSTEM: human recombinant serotonin (5-Hydroxytryptamine) 5-HT6 receptor (Homo sapiens)
Construct: expressed in transfected cells; host or cells: human HeLa cells
PROTOCOL: Serotonin 5-HT6 radioligand binding ([3H]LSD)
DETAILS: read-out: Serotonin 5-HT6, inhibition of ligand binding (1 μM)
Entry rule: numbers only, all in %.

The following molecules have reported results that may help.
CN1C2CCC1c1c(n(CCc3cncc(Cl)c3)c3ccc(Cl)cc13)C2 (stereo not shown) : 23
CN1C2CCC1c1c(n(CC(=O)c3ccc(Cl)cc3)c3ccc(Cl)cc13)C2 (stereo not shown) : 38
CC(=O)N1CCN(C(=O)CCn2c3c(c4cc(Cl)ccc42)C2CCC(C3)N2C)CC1 (stereo not shown) : -1
C/C(=C\n1c2c(c3cc(Cl)ccc31)C1CCC(C2)N1C)c1ccc(Cl)c(Cl)c1 (stereo not shown) : 31
CN1C2CCC1c1c(n(CCCc3ccc(C(F)(F)F)nc3)c3ccc(Cl)cc13)C2 (stereo not shown) : 22

**Q:** Endpoint output: inhibition at 1 µM of Cc1ccc(C#Cn2c3c(c4cc(Cl)ccc42)C2CCC(C3)N2C)cn1 (stereo not shown) . Value?
**A:** 26

**Q:** Endpoint output: inhibition at 1 µM of COc1ccc(C(C)(O)Cn2c3c(c4cc(C)ccc42)C2CCC(C3)N2C)cc1F (stereo not shown) . Value?
**A:** 25

**Q:** Endpoint output: inhibition at 1 µM of Cc1ccc2c(c1)c1c(n2CCc2nc(-c3ccccc3)cs2)CC2CCC1N2C (stereo not shown) . Value?
**A:** 29

**Q:** Endpoint output: inhibition at 1 µM of C/C(=C\n1c2c(c3cc(Cl)ccc31)C1CCC(C2)N1C)c1ccc(Cl)cc1 (stereo not shown) . Value?
**A:** 33

**Q:** Endpoint output: inhibition at 1 µM of COc1ccc(/C(C)=C/n2c3c(c4cc(Cl)ccc42)C2CCC(C3)N2C)cc1F (stereo not shown) . Value?
**A:** 31

**Q:** Endpoint output: inhibition at 1 µM of Cc1ccc2c(c1)c1c(n2C(=O)Cc2ccc(Cl)cc2)CC2CCC1N2C (stereo not shown) . Value?
**A:** 23

**Q:** Endpoint output: inhibition at 1 µM of Cc1ccc2c(c1)c1c(n2CCCc2ccc(Cl)cc2)CC2CCC1N2C (stereo not shown) . Value?
**A:** 52

**Q:** Endpoint output: inhibition at 1 µM of `C/C(=C/n1c2c(c3ccccc31)[C@@H]1CC[C@H](C2)N1C)c1ccc(F)cc1` . Value?
**A:** 65

###

TESTED SYSTEM: human recombinant serotonin (5-Hydroxytryptamine) 5-HT7 receptor (Homo sapiens, UniProt P34969)
Construct: expressed in transfected cells; host or cells: CHO cells
Sequence (P34969 whole entry): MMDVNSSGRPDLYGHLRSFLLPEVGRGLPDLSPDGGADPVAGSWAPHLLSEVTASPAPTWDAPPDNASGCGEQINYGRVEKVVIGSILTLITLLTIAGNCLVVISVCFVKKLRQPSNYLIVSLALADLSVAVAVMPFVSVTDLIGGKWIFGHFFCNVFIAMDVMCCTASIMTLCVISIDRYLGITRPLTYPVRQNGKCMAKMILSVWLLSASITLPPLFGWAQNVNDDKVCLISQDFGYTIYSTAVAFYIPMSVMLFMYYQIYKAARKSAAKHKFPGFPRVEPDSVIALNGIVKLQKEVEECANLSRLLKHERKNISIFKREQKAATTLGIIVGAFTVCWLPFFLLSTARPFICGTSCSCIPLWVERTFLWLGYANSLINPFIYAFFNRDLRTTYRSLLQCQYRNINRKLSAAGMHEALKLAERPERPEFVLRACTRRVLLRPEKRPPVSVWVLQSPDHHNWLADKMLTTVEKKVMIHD
PROTOCOL: Serotonin 5-HT7 radioligand binding ([3H]LSD)
DETAILS: read-out: Serotonin 5-HT7, inhibition of ligand binding (1 μM)
PROPERTY NAME: inhibition at 1 µM (%)
Entry rule: numbers only, all in %.

The following molecules have reported results that may help.
COc1ccc(C(C)(O)Cn2c3c(c4cc(C)ccc42)C2CCC(C3)N2C)cc1F (centres unmarked) [Compound 161] : 69
C/C(=C\n1c2c(c3cc(C)ccc31)C1CCC(C2)N1C)c1ccc(Cl)cc1 (centres unmarked) [Compound 116] : 92

**Q:** Endpoint output: inhibition at 1 µM of Cc1ccc2c(c1)c1c(n2CCc2ccccc2)CC2CCC1N2C (centres unmarked) [Compound 2] . Value?
**A:** 98

**Q:** Endpoint output: inhibition at 1 µM of COc1ccc(/C(C)=C/n2c3c(c4cc(Cl)ccc42)C2CCC(C3)N2C)cc1F (centres unmarked) [Compound 136] . Value?
**A:** 79

**Q:** Endpoint output: inhibition at 1 µM of C/C(=C\n1c2c(c3cc(Cl)ccc31)C1CCC(C2)N1C)c1ccc(F)cc1 (centres unmarked) [Compound 123] . Value?
**A:** 97

###

List of inhibition at 1 µM values.
TESTED SYSTEM: human recombinant adrenergic α1D receptor (Homo sapiens)
Construct: expressed in transfected cells; host or cells: HEK-293 cells
Sequence (P25100 whole entry): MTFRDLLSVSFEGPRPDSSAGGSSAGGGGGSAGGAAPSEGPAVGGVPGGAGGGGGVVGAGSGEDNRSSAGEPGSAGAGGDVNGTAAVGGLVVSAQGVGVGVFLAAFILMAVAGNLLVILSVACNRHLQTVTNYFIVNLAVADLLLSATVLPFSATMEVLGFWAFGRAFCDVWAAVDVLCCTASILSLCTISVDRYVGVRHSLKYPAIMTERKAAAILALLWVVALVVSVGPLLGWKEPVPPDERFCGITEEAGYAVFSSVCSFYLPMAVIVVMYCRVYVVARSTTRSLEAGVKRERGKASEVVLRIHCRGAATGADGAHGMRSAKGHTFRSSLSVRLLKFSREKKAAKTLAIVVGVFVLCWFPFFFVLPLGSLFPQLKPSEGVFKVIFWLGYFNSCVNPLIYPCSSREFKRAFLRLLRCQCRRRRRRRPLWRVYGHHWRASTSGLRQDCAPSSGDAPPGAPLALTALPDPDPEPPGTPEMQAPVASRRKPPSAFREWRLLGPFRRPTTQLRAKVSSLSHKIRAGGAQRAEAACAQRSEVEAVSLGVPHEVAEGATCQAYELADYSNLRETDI
PROTOCOL: Adrenergic α1D radioligand binding ([3H]Prozosin)
DETAILS: 1 μM; read-out: Adrenergic α1D, inhibition of ligand binding (1 μM)
Procedure: To evaluate in radioligand binding assays the activity of compounds of the invention, human recombinant adrenergic α1D receptor expressed in human embryonic kidney (HEK-293) cells (Kenny, B. A. et al. Br. J. Pharmacol. 115(6):981, 1995) in a 50 mM Tris-HCl buffer, pH 7.4, was used. Compounds of invention were incubated with 0.6 nM [^3H]Prozosin for 60 minutes at 25° C. […] Receptor proteins were filtered and washed, the filters were then counted to determine [^3H]Prozosin specifically bound. […]
Entry rule: numbers only, all in %.

The following compounds have reported results that may help.
CN1C2CCC1c1c(n(CC(=O)c3ccc(Cl)cc3)c3ccc(Cl)cc13)C2 (centres unmarked) [Compound 111] : 40
Cc1ccc2c(c1)c1c(n2CCc2ccc(F)cc2)CC2CCC1N2C (centres unmarked) [Compound 62] : 83
CN1C2CCC1c1c(n(CCC(=O)N3CCNC(=O)C3)c3ccc(Cl)cc13)C2 (centres unmarked) [Compound 3] : 6
Cc1ccc(CCn2c3c(c4cc(Cl)ccc42)C2CCC(C3)N2C)cn1 (centres unmarked) [Compound 79] : 72
CN1C2CCC1c1c(n(CC(=O)N3CCCC3)c3ccc(Cl)cc13)C2 (centres unmarked) [Compound 60] : 1

**Q:** Endpoint output: inhibition at 1 µM of CN1C2CCC1c1c(n(CCC(=O)N3CC[S+]([O-])CC3)c3ccc(Cl)cc13)C2 (centres unmarked) [Compound 10] . Value?
**A:** 7

**Q:** Endpoint output: inhibition at 1 µM of Cc1ccc2c(c1)c1c(n2CCc2cncc(Cl)c2)CC2CCC1N2C (centres unmarked) [Compound 88] . Value?
**A:** 73

**Q:** Endpoint output: inhibition at 1 µM of Cc1cncc(CCn2c3c(c4cc(Cl)ccc42)C2CCC(C3)N2C)c1 (centres unmarked) [Compound 89] . Value?
**A:** 44
